Molecular target: human CD3 ed (human, UniProt P07766 23-126; P04234 22-105, limits assumed)
Sequence (P07766 23-126 limits assumed, chain 1 of 2): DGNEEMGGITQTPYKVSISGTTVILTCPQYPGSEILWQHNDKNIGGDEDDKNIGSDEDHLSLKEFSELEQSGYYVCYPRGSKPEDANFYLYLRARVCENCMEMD
Sequence (P04234 22-105 limits assumed, chain 2 of 2): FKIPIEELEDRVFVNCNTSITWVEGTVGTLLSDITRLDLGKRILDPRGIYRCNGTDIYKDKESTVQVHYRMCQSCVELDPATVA
Assay: SPR Biacore T200, IgG captured on protein A, 25 C;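 note: antigens diluted in ACES running buffer at pH 7.4 were flowed over antibodies held on a CM3 chip bearing amine-coupled protein A, with buffer alone serving as blank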
readout-name: koff (s⁻¹)
Field: numeric (s⁻¹). Do not append units.

Examples with answers:
dBBDu189/L116 (antibody, V domains shown, IgG format; constant regions not specified) VH: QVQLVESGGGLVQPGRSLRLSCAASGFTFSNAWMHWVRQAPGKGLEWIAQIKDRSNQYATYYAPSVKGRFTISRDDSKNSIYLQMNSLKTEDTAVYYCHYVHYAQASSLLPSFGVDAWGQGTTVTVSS VL: DIVMTQSPLSLPVTPGEPASISCSSSQELVHANRQIYLHWYQQKPGQAPRLLIYKVANRFPGVPDRFSGSGSGTDFTLKISRVEAEDVGVYYCAQGTQVPFTFGQGTKLEIK	0.00434
dBBDu183/L072 (antibody, V domains shown, IgG format; also called H183L072) VH: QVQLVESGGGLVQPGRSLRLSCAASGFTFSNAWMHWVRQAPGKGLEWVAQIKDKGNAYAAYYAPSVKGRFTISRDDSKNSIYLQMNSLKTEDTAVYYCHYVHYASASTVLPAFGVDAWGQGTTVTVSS VL: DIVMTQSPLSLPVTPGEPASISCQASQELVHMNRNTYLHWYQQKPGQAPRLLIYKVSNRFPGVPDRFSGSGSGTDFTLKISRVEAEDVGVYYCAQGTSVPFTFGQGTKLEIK	0.00785

Request: Would you kindly share the measured koff for dBBDu186/L108 (antibody, V domains shown, IgG format; constant regions not specified) VH: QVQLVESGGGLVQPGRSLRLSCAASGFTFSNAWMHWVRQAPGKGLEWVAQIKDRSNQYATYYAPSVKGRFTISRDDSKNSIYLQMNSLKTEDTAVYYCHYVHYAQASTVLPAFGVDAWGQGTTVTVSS VL: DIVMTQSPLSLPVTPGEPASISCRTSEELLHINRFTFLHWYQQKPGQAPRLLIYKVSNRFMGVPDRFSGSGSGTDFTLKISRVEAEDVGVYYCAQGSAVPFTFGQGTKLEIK ?
Response: 0.0408

Request: What would you report for dBBDu193/L132 (antibody, V domains shown, IgG format; constant regions not specified; also called dBBDu_193 dBBDu.L132) VH: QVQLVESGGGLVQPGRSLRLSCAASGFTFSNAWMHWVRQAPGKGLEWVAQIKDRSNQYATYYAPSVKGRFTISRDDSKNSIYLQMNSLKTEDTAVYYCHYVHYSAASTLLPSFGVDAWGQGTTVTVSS VL: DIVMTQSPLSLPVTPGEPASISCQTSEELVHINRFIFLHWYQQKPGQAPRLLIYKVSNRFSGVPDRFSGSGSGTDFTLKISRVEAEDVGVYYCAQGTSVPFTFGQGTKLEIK ?
Response: 0.0201
